Assay: Clearance in BALB/c mouse at 1 mg/kg, iv by LC/MS/MS analysis
Format: ADME, organism-based
Set-up: dose 1 mg/kg, route intravenous
Conditions: in vivo
Readout type: clearance
Give your result as the value with the unit written after it.

Query: For "Nc1ccc(CNC(=O)Nc2ccc(S(=O)(=O)c3ccccc3)cc2)cn1" , what is its reported clearance?
Reply: 4.9 mL/min/kg

###

Test: Half life in BALB/c mouse at 1 mg/kg, iv by LC/MS/MS analysis
Assay type: ADME, organism-based
Parameters: dose 1 mg/kg, route intravenous
Conditions: in vivo
Readout type: half-life

Query: For "Nc1ccc(CNC(=O)Nc2ccc(S(=O)(=O)c3ccccc3)cc2)cn1" , what is its reported half-life?
Reply: 2.6 h

###

Assay: Hepatic clearance in CD-1 mouse hepatocytes at 1 uM by LC-MS/MS analysis
Format: ADME, cell-based, Liver, Hepatocyte
condition met means recorded CLhep predicted at 1 µM is 20 mL/min/kg or above; condition not met means it is below 20 mL/min/kg.

Query: Hi team, for "Nc1ccc(CNC(=O)Nc2ccc(S(=O)(=O)c3ccccc3)cc2)cn1" , is the recorded CLhep predicted at 1 µM at or above 20 mL/min/kg?
Reply: condition not met

###

Assay: Apparent permeability from apical to basolateral side in MDCK cells at 10 uM by LC-MS/MS analysis
Format: ADME, cell-based, Canis lupus familiaris
Details: dog
Readout type: Papp A→B at 10 µM (×10⁻⁶ cm/s)
Value expressed in ×10⁻⁶ cm/s; do not type the unit.

See these solved cases before continuing.
{"Molecule": "O=C(NCc1cccnc1)Nc1ccc(S(=O)(=O)N[C@H]2CCC[C@H](O)C2)cc1", "Papp A→B at 10 µM / ×10⁻⁶ cm/s": 0.1}
{"Molecule": "N[C@H]1CC[C@H](NS(=O)(=O)c2ccc(NC(=O)NCc3cccnc3)cc2)CC1", "Papp A→B at 10 µM / ×10⁻⁶ cm/s": 0.2}

Query: For "Nc1ccc(CNC(=O)Nc2ccc(S(=O)(=O)c3ccccc3)cc2)cn1" , what is its reported Papp A→B at 10 µM?
Reply: 2.9

Query: For "C[C@@H]1CN(S(=O)(=O)c2ccc(NC(=O)NCc3cccnc3)cc2)C[C@H](C)O1" , what is its reported Papp A→B at 10 µM?
Reply: 3.1

Query: For CC1CNCCN(S(=O)(=O)c2ccc(NC(=O)NCc3cccnc3)cc2)C1 (racemic) , what is its reported Papp A→B at 10 µM?
Reply: 0.1

Query: For "O=C(NCc1cccnc1)Nc1ccc(S(=O)(=O)N2CCC3(CCNC3)CC2)cc1" , what is its reported Papp A→B at 10 µM?
Reply: 0.07

###

Assay: Volume of distribution at steady state in BALB/c mouse at 1 mg/kg, iv by LC/MS/MS analysis
Assay type: ADME, organism-based
Parameters: dose 1 mg/kg, route intravenous
Details: in vivo, read-out: Vdss
Readout type: Vd (L/kg)
Value expressed in L/kg; do not type the unit.

Query: For "Nc1ccc(CNC(=O)Nc2ccc(S(=O)(=O)c3ccccc3)cc2)cn1" , what is its reported Vd?
Reply: 0.51

###

Assay: Half life in BALB/c mouse at 5 mg/kg, po by LC/MS/MS analysis
Type: ADME, organism-based
Set-up: dose 5 mg/kg, route oral
Settings: in vivo
Readout type: half-life (h)
Value expressed in h; do not type the unit.

Query: For "Nc1ccc(CNC(=O)Nc2ccc(S(=O)(=O)c3ccccc3)cc2)cn1" , what is its reported half-life?
Reply: 2.7
